This collection of values is drawn from patent US10526327B2.

pIC50: −log10 of the molar value.
Below are pIC50 values recorded for JMJD2C (Homo sapiens, UniProt Q9H3R0).
Assay endpoint: pIC50

- Molecule: "CCC(Oc1nc(O)c2ccnc(-c3cn(C)cn3)c2n1)C(F)(F)F (stereo not drawn) [Example 110]"
  Assay endpoint: "pIC50"
  Readout value: "5.00 to 6.00"
- Molecule: "O=S(=O)(C1CC1)N1CCCC(n2cc(Oc3nc(O)c4ccncc4n3)cn2)C1 (stereo in doubt) [Example 151]"
  Assay endpoint: "pIC50"
  Readout value: "≥ 7.00"
- Molecule: "Cn1cnc(-c2nccc3c(O)nc(OCc4ccc(Cl)cc4)nc23)c1 [Example 112]"
  Assay endpoint: "pIC50"
  Readout value: "6.00 to 7.00"
- Molecule: "O=S(=O)(c1ccccc1)N1CCC(n2cc(Oc3nc(O)c4ccncc4n3)cn2)CC1 [Example 95]"
  Assay endpoint: "pIC50"
  Readout value: "≥ 7.00"
- Molecule: "Oc1nc(Oc2cnn(C3CCCN(c4ccc(F)cc4)C3)c2)nc2cnccc12 (stereo in doubt) [Example 169]"
  Assay endpoint: "pIC50"
  Readout value: "≥ 7.00"
- Molecule: "Oc1nc(OCc2ccc(F)cc2)nc2cnccc12 [Example 180]"
  Assay endpoint: "pIC50"
  Readout value: "≥ 7.00"
- Molecule: "Oc1nc(OCc2cccc3ccccc23)nc2cnccc12 [Example 184]"
  Assay endpoint: "pIC50"
  Readout value: "6.00 to 7.00"
- Molecule: "Cn1cnc(-c2nccc3c(O)nc(OCCO)nc23)c1 [Example 75]"
  Assay endpoint: "pIC50"
  Readout value: "6.00 to 7.00"
- Molecule: "N#CCC(=O)N1CC[C@@H](n2cc(Oc3nc(O)c4ccncc4n3)cn2)C1 [Example 130]"
  Assay endpoint: "pIC50"
  Readout value: "≥ 7.00"

* * *

Target: Jarid1B (Homo sapiens)
Sequence (Q9UGL1 2-751): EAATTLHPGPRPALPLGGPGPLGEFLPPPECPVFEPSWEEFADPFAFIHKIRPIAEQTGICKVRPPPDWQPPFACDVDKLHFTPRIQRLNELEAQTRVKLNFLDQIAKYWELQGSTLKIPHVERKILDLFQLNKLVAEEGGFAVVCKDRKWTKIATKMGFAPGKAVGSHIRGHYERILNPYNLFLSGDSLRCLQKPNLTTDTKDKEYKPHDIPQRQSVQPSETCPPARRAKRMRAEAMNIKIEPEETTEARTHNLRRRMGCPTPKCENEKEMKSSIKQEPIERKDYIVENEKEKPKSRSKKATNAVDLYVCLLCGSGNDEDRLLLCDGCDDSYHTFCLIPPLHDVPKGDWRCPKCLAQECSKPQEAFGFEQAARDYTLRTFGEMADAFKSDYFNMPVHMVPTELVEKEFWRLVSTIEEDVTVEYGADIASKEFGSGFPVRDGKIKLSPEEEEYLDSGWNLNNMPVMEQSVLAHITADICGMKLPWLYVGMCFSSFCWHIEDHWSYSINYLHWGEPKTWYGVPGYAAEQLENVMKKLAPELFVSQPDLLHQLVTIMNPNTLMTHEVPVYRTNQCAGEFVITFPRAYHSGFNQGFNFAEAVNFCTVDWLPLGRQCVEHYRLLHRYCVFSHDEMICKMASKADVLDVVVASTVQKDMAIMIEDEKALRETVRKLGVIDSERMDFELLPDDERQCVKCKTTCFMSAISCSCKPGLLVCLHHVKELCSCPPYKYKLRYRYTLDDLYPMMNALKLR
IC50: recorded values
Assay endpoint: IC50

- Compound: "CN(C)CCCOc1nc(O)c2ccncc2n1"
  Assay endpoint: "IC50"
  Readout value: "1000 to 10000 nM"
- Compound: "N#CCC(=O)N1CC[C@H](n2cc(Oc3nc(O)c4ccncc4n3)cn2)C1"
  Assay endpoint: "IC50"
  Readout value: "≤ 100 nM"
- Compound: "CN(C)c1ccc(Oc2nc(O)c3ccncc3n2)cc1"
  Assay endpoint: "IC50"
  Readout value: "≤ 100 nM"
- Compound: "CC(C)Oc1nc(O)c2ccncc2n1"
  Assay endpoint: "IC50"
  Readout value: "100 to 1000 nM"
- Compound: "Oc1nc(Oc2cnn([C@H]3CCN(c4ccc(F)cc4)C3)c2)nc2cnccc12"
  Assay endpoint: "IC50"
  Readout value: "≤ 100 nM"
- Compound: "O=C(c1ccccc1)N1CC[C@@H](n2cc(Oc3nc(O)c4ccncc4n3)cn2)C1"
  Assay endpoint: "IC50"
  Readout value: "≤ 100 nM"
- Compound: "Cn1cnc(-c2nccc3c(O)nc(OCCC4CC4)nc23)c1"
  Assay endpoint: "IC50"
  Readout value: "≤ 100 nM"
- Compound: "N#Cc1cccc(COc2nc(O)c3ccncc3n2)c1"
  Assay endpoint: "IC50"
  Readout value: "100 to 1000 nM"
- Compound: "CCC(c1ccccc1)n1cc(Oc2nc(O)c3ccncc3n2)cn1 (centres unmarked)"
  Assay endpoint: "IC50"
  Readout value: "≤ 100 nM"
- Compound: "C[C@@H](c1ccccc1F)n1cc(Oc2nc(O)c3ccncc3n2)cn1"
  Assay endpoint: "IC50"
  Readout value: "≤ 100 nM"
- Compound: "O=S(=O)(C1CC1)N1CC[C@@H](n2cc(Oc3nc(O)c4ccncc4n3)cn2)C1"
  Assay endpoint: "IC50"
  Readout value: "≤ 100 nM"
- Compound: "COCCCn1cc(Oc2nc(O)c3ccncc3n2)cn1"
  Assay endpoint: "IC50"
  Readout value: "≤ 100 nM"
- Compound: "Cn1cnc(-c2nccc3c(O)nc(Oc4ccc(Cl)c(Cl)c4)nc23)c1"
  Assay endpoint: "IC50"
  Readout value: "≤ 100 nM"
- Compound: "O=C(C1CC1)N1CC[C@@H](n2cc(Oc3nc(O)c4ccncc4n3)cn2)C1"
  Assay endpoint: "IC50"
  Readout value: "≤ 100 nM"
- Compound: "COc1ccc(Oc2nc(O)c3ccncc3n2)cc1OC"
  Assay endpoint: "IC50"
  Readout value: "≤ 100 nM"
- Compound: "O=C(C1CC1)N1CCC[C@H](n2cc(Oc3nc(O)c4ccncc4n3)cn2)C1"
  Assay endpoint: "IC50"
  Readout value: "≤ 100 nM"
- Compound: "Oc1nc(OCc2coc3ccccc23)nc2cnccc12"
  Assay endpoint: "IC50"
  Readout value: "100 to 1000 nM"
- Compound: "Oc1nc(OCC2CCOC2)nc2cnccc12 (centres unmarked)"
  Assay endpoint: "IC50"
  Readout value: "100 to 1000 nM"
- Compound: "O=S(=O)(C1CC1)N1CC[C@H](n2cc(Oc3nc(O)c4ccncc4n3)cn2)C1"
  Assay endpoint: "IC50"
  Readout value: "≤ 100 nM"
- Compound: "Oc1nc(Oc2cnn(C3CCOCC3)c2)nc2cnccc12"
  Assay endpoint: "IC50"
  Readout value: "≤ 100 nM"
